Biological target: T1, CD22 protein expressed on the surface of Daudi cells (human, UniProt P20273 20-847)
T1 sequence (looked up): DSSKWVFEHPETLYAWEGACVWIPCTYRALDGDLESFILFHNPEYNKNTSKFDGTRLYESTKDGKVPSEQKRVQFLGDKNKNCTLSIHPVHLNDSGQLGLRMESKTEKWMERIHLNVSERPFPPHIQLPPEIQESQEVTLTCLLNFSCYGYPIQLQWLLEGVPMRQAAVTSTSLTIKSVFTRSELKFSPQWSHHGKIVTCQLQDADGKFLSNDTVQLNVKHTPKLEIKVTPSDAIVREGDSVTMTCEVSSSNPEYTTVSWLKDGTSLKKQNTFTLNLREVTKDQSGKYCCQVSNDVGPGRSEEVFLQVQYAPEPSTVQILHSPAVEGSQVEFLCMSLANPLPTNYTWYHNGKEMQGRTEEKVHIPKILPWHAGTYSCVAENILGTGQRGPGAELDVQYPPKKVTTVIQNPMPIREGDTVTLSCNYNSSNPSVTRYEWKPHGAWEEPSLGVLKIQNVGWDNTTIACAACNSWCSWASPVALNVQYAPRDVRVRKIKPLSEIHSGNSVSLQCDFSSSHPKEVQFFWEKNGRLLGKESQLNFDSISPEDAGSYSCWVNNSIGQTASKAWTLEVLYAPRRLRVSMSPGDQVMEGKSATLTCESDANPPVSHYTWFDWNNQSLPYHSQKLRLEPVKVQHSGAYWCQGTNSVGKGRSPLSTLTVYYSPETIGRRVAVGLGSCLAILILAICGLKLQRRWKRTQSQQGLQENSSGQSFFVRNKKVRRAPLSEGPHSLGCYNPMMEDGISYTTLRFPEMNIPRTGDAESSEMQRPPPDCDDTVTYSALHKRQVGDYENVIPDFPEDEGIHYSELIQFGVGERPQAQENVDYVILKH
Assay: cell-based or functional assay
Quantity name: Daudi Internalization by FACS, % Shift (%)
Answer format: numeric, % implied, no suffix.

The measured Daudi Internalization by FACS, % Shift associated with VM1008 (antibody, V domains shown, Humanized antibody with human constant region; also called Anti-CD22 Ab VM1008; anti-CD22 Mab clone VM1008) VH: QVQLVQSGAEVKKPGASVKVSCKASGYVFTSYWLHWVRQARGQRLEWIGYINPRNDYTEYNRIFKGRVTITADKSTSTAYMELSSLRSEDTAVYYCARRGITTFYWGQG VL: DIQMTQSPSSLSASVGDRVTITCKSSQSVLYSAVEKNYLAWYQQKPGQAPRLLIYWASTRERGIPDRFSGSGSGTDFTLTISRLEPEDFAVYYCKQYLSSWTFGQG reads 69.4

The measured Daudi Internalization by FACS, % Shift associated with VM1002 (antibody, V domains shown, Humanized antibody with human constant region; also called anti-CD22 Mab clone VM1002) VH: EVQLVQSGAEVKKPGESLRISCKGSGYVFTSYWLHWVRQAPGQGLEWMGYINPRNDYTEYNRIFKGRVTITADKSTSTAYMELSSLRSEDTAVYYCARRGITTFYWGQG VL: EIVLTQSPATLSLSPGERATLSCKSSQSVLYSAVEKNYLAWYQQKPGQAPRLLIYWASTRERGIPDRFSGSGSGTDFTLTISRLEPEDFAVYYCKQYLSSWTFGQG reads 84.6
